Test: Visual observation of test solutions for deposition of crystals or white turbidity
Assay type: physicochemical
Design: key: +: turbidity found; −: no turbidity
Conditions: just after the preparation; agent added 1.5 mM

molecule	turbidity (visual observation)
OC[C@H]1O[C@@H]2O[C@H]3[C@H](O)[C@@H](O)[C@@H](O[C@H]4[C@H](O)[C@@H](O)[C@@H](O[C@H]5[C@H](O)[C@@H](O)[C@@H](O[C@H]6[C@H](O)[C@@H](O)[C@@H](O[C@H]7[C@H](O)[C@@H](O)[C@@H](O[C@H]8[C@H](O)[C@@H](O)[C@@H](O[C@H]9[C@H](O)[C@@H](O)[C@@H](O[C@H]1[C@H](O)[C@H]2O)O[C@@H]9CO)O[C@@H]8CO)O[C@@H]7CO)O[C@@H]6CO)O[C@@H]5CO)O[C@@H]4CO)O[C@@H]3CO [γCD, γ-cyclodextrin, reference compound]	−
OCC1OC(OCC2OC3OC4C(CO)OC(OC5C(CO)OC(OC6C(CO)OC(OC7C(CO)OC(OC8C(CO)OC(OC9C(CO)OC(OC2C(O)C3O)C(O)C9O)C(O)C8O)C(O)C7O)C(O)C6O)C(O)C5O)C(O)C4O)C(O)C(O)C1O (stereo not drawn)	−
OC[C@H]1O[C@@H]2O[C@H]3[C@H](O)[C@@H](O)[C@@H](O[C@H]4[C@H](O)[C@@H](O)[C@@H](O[C@H]5[C@H](O)[C@@H](O)[C@@H](O[C@H]6[C@H](O)[C@@H](O)[C@@H](O[C@H]7[C@H](O)[C@@H](O)[C@@H](O[C@H]1[C@H](O)[C@H]2O)O[C@@H]7CO)O[C@@H]6CO)O[C@@H]5CO)O[C@@H]4CO)O[C@@H]3CO [αCD, α-cyclodextrin, reference compound]	−
